Target: T1, DGI-2 polypeptide (UniProt Q15004 1-111, limits assumed)
T1 construct: Vector-derived residues or tag of pIVEX2.3 are not described for this construct; also called KIAA0101
T1 sequence (looked up): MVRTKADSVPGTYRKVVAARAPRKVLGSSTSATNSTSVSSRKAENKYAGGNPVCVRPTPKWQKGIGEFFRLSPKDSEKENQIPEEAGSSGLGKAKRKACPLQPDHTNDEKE
Experiment: phage ELISA, 405 nm; DGI-2 signal over LDH signal
Assign DGI-2/LDH (OD) to each entry below.
Report the value in ratio with no unit label.

Recorded DGI-2/LDH (OD) of GSVLERGCLEFSGFCFSLGHAAAGAPVPYPDPLEPRP (not shown: phage gene III coat protein (pCANTAB5E)) [DGI-2-20F-3-C1] , please.
3.4

Recorded DGI-2/LDH (OD) of DGI-2-40F-3-B5 (not shown: phage gene III coat protein (pCANTAB5E)) peptide: RSRSSSGASGSMLRVQNHMVLGSWMVRQPMGSMTPFHGHGAAAGAPVPYPDPLEPRP , please.
1.2

Recorded DGI-2/LDH (OD) of DGI-2-40F-4-F6 (not shown: phage gene III coat protein (pCANTAB5E)) peptide: SYRNFAMQSSLQVRRGSVVEDGTCWWEGVRCYSGAAAGAPVPYPDPLEPRP , please.
3.2

Recorded DGI-2/LDH (OD) of GNKCFPPHDLFWDPCDQLQSAAAGAPVPYPDPLEPRP (not shown: phage gene III coat protein (pCANTAB5E)) [DGI-2-20R-4-F6] , please.
2.3

Recorded DGI-2/LDH (OD) of DGI-2-40F-3-D7 (not shown: phage gene III coat protein (pCANTAB5E)) peptide: ALRSLGSGGFGWQAGRASPQGMTHFPYFGWSGMPTARVRPAAAGAPVPYPDPLEPRP , please.
2.6

Recorded DGI-2/LDH (OD) of DGI-2-40F-3-A7 (not shown: phage gene III coat protein (pCANTAB5E)) peptide: CAYRWGLFRGPGRVDYDLQVVGIMMWPGPIPDRSSRGSVAAAAGAPVPYPDPLEPRP , please.
1.1

Recorded DGI-2/LDH (OD) of DGI-2-40F-3-D1 (not shown: phage gene III coat protein (pCANTAB5E)) peptide: MGQGFHYNRQPYMSHQCYAFTFSTPFLDGDRIPHGVSRGLAAAGAPVPYPDPLEPRP , please.
1

Recorded DGI-2/LDH (OD) of DGI-2-40F-3-B10 (not shown: phage gene III coat protein (pCANTAB5E)) peptide: MQAASTLSTYMGAIRMGYPILHWDRGGVQRVDPGLYRGRVAAAGAPVPYPDPLEPRP , please.
1.4

Recorded DGI-2/LDH (OD) of DGI-2-40F-3-B72 (not shown: phage gene III coat protein (pCANTAB5E)) peptide: PKDGAAFKGSDFIQGGQTVMERAPALWWRDGGGQWEAPSTAAAGAPVPYPDPLEPRP , please.
1.3

Recorded DGI-2/LDH (OD) of LVIQCSASVVACDLYWNYVGCLAAGAAAGAPVPYPDPLEPRP (not shown: phage gene III coat protein (pCANTAB5E)) [DGI-2-20C-3-D12] , please.
1.1

Recorded DGI-2/LDH (OD) of VAFGEQIRVAMAGTLWQRWRAAAGAPVPYPDPLEPRP (not shown: phage gene III coat protein (pCANTAB5E)) [DGI-2-20R-3-D5] , please.
1.4

Recorded DGI-2/LDH (OD) of RCFQDGRMLALSPTYLIRRSVSPLVVGPLPTPAAAGAPVPYPDPLEPRP (not shown: phage gene III coat protein (pCANTAB5E)) [DGI-2-40F-3-A24] , please.
1.4

Recorded DGI-2/LDH (OD) of RFWSVSYQGGRVMCREWGYCLPIAAAGAPVPYPDPLEPRP (not shown: phage gene III coat protein (pCANTAB5E)) [DGI-2-40F-3-C92] , please.
2.6

Recorded DGI-2/LDH (OD) of MAVLPAARDFGGVVQGGVSGAAAGAPVPYPDPLEPRP (not shown: phage gene III coat protein (pCANTAB5E)) [DGI-2-20F-3-C2] , please.
1.3

Recorded DGI-2/LDH (OD) of LSLLSVVVRSMGASAPQRQVAAAGAPVPYPDPLEPRP (not shown: phage gene III coat protein (pCANTAB5E)) [DGI-2-20F-3-A7] , please.
2.4

Recorded DGI-2/LDH (OD) of GLRACDTYLGFCVGARRIDDAAAGAPVPYPDPLEPRP (not shown: phage gene III coat protein (pCANTAB5E)) [DGI-2-20F-3-B102] , please.
2.5

Recorded DGI-2/LDH (OD) of DGI-2-40F-3-B1 (not shown: phage gene III coat protein (pCANTAB5E)) peptide: HGTRLRGVDYVMTWAGWQGYSSRKHVQQAVAGSSPGSDELAAAGAPVPYPDPLEPRP , please.
1.2

Recorded DGI-2/LDH (OD) of PAMGHCMQVLGPVLEGRSRDQVGRAAAGAPVPYPDPLEPRP (not shown: phage gene III coat protein (pCANTAB5E)) [DGI-2-20R-4-G6] , please.
1.4

Recorded DGI-2/LDH (OD) of DGI-2-40F-3-B6 (not shown: phage gene III coat protein (pCANTAB5E)) peptide: QSNVWVLVGVIMQGVWYQRQHYCVYVMLLSDQVSVLLAVAAAAGAPVPYPDPLEPRP , please.
1.2

Recorded DGI-2/LDH (OD) of WAGSTDLWQLWSLWVKPELRAAAGAPVPYPDPLEPRP (not shown: phage gene III coat protein (pCANTAB5E)) [DGI-2-20F-3-B7] , please.
1.6

Recorded DGI-2/LDH (OD) of DGI-2-40F-3-A12 (not shown: phage gene III coat protein (pCANTAB5E)) peptide: RRTQPAYRSGADDRTSGFYCYVTSALSAGAWMPFLPRRLAAAAGAPVPYPDPLEPRP , please.
1.1

Recorded DGI-2/LDH (OD) of DGI-2-40F-3-C7 (not shown: phage gene III coat protein (pCANTAB5E)) peptide: HPWVTNMLVFQRPPPPGFWLSDTTPRQRNGLGQVERPSVDAAAGAPVPYPDPLEPRP , please.
1.5

Recorded DGI-2/LDH (OD) of GMWIRPNGHMFLQGGYTARSAAAGAPVPYPDPLEPRP (not shown: phage gene III coat protein (pCANTAB5E)) [DGI-2-20R-4-G8] , please.
1.4
